assay.remarks: Toxicity liver stage against HepG2, at 10uM
Assay type: cell-based
Set-up: test concentration 10 uM, cell line HepG2-A16-CD81EGFP
condition.details: human, HepG2-A16-CD81EGFP cells; read-out: INHIBITION
Let's look at some compounds and their measured cytotoxicity at 10 µM.
Reply with just the number (in %).

Below are worked cases with known answers.
compound: Cc1cc(C2CCCN(C(=O)c3ccc(Cl)o3)C2)n[nH]1 (stereo not given)
data.value: -5.02

compound: O=C(NCC1CC1)[C@@H]1CC[C@@H]2[C@@H](CCN2Cc2ccc(F)c(F)c2)O1
data.value: 8.33

compound: COc1cccc2c1OCCCN(Cc1c[nH]nc1C(=O)O)C2
data.value: 6.5

compound: CCc1ccc(CN2CCNC(C(=O)N3CCN(C)CC3)C2)nc1 (stereo not given)
data.value: 7.68

Ask: Query (compound): `CCC[C@@H]1CN(c2ncnc3sccc23)C[C@H]1NS(C)(=O)=O` ; field requested: cytotoxicity at 10 µM
Reply: -1.25

Source of measurements: ChEMBL document CHEMBL4513216
